- target.or.test.system: T1, human GIP receptor (human, UniProt P48546 22-466)
- T1 sequence (looked up): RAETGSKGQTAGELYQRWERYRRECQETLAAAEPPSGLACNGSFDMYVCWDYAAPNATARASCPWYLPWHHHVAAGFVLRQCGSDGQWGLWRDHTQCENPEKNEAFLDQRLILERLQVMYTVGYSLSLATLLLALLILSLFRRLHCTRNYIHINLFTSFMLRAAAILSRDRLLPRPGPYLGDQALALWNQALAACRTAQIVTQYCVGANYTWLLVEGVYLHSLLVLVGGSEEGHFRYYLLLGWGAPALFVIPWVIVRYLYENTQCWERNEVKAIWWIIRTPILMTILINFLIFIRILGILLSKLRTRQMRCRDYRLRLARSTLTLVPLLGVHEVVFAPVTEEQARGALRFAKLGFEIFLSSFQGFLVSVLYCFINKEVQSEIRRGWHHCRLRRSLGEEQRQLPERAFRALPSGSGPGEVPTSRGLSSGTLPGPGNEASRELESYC
- test: cell-based or functional assay
Starred links: 1 amine or outer side, 2 acyl side, 3 side chain; linkers in the order of their positions; H or OH if unused. Non-standard residues stand in square brackets, D forms with d. Groups on a side chain read outwards from the residue. No end group written: not given here. *: point of attachment. C20 diacid = O=C(O)CCCCCCCCCCCCCCCCCCC(=O)*; C18 diacid = O=C(O)CCCCCCCCCCCCCCCCC(=O)*; γGlu = O=C(O)[C@H](CCC(=O)[*:2])N[*:1]; εLys = N[C@@H](CCCCN[*:1])C(=O)[*:2]; AEEA = NCCOCCOCC(=O)O; Aib = CC(C)(N)C(=O)O; Ahx = NCCCCCC(=O)O
Mark class 1 only for EC50 hGIPR 100% hP (CreLuc) values smaller than 2 nM; exact matches and larger values are class 0.

1) YXEGTFTSDYSIXLEKQAQXAFVEWLIKGGPSEGASLRHYYNWLTRQRY (Aib at 2, 13, 20; K28 side chain acylated with C18DA-gGlu-gGlu-gGlu-gGlu-gGlu; C-terminal amide (NH2)) [Compound 292] = class 0
2) Y[Aib]EGTFTSDYSI[Aib]LEKQAQ[Aib]AFVEWLIK([AEEA-AEEA-γGlu-γGlu-γGlu-γGlu-C18 diacid])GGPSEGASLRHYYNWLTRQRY-NH2 (also: TFA salt) [Compound 297] = class 1

API: query returns whether the binder falls strictly under 2 nM in EC50 hGIPR 100% hP (CreLuc). Query: Y[Aib]EGTFTSDYSI[Aib]LEKQAQ[Aib]EFVEWLIK([AEEA-AEEA-γGlu-γGlu-γGlu-C18 diacid])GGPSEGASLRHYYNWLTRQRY-NH2 (also: TFA salt) [Compound 284] class 1

Given the entry Y[Aib]EGTFTSDYSI[Aib]LEKQAE[Aib]AFVEWLIKGGPSEGASLRHYYNWLTRQRY-NH2 (not fully specified (residue 28); also: TFA salt) [Compound 278] , would its reported EC50 hGIPR 100% hP (CreLuc) be below 2 nM? class 1

Does this binder meet the criterion EC50 hGIPR 100% hP (CreLuc) < 2 nM? Y[Aib]EGTFTSDYSI[Aib]LEKQAQ[Aib]AFVEWLIK([εLys-γGlu-Glu-γGlu-γGlu-γGlu-C20 diacid])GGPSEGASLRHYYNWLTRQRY-NH2 (also: TFA salt) [Compound 290] class 1

EC50 hGIPR 100% hP (CreLuc) strictly < 2 nM for this binder? Y[Aib]EGTFTSDYSI[Aib]LEKQAQ[Aib]AFVEWLIK([Ahx-γGlu-γGlu-γGlu-γGlu-γGlu-γGlu-C18 diacid])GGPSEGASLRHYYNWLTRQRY-NH2 (also: TFA salt) [Compound 303] class 0

I wonder whether YXEGTFTSDYSIXLEKQAQXEFVEWLIKGGPSEGASLRHYYNWLTRQRY (Aib at 2, 13, 20; K28 side chain acylated with C20DA-gGlu-gGlu-gGlu-gGlu-gGlu-gGlu-eLys; C-terminal amide (NH2)) [Compound 275] has EC50 hGIPR 100% hP (CreLuc) below 2 nM. Can you tell? class 1

Threshold test, EC50 hGIPR 100% hP (CreLuc) < 2 nM: Y[Aib]EGTFTSDYSI[Aib]LEKQAQ[Aib]AFVEWLIK([AEEA-AEEA-γGlu-γGlu-γGlu-C18 diacid])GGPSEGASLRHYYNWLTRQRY-NH2 (also: TFA salt) [Compound 299] class 1
